molecular target: Heat shock protein HSP 90-alpha (Homo sapiens, UniProt P07900); assay type: functional, organism-based
Calls of active or inactive are those of the source.
Measured AC50 of individual entries
quantity.name: AC50

1) Oc1c(C(c2ccccc2Cl)N2CCCC2)ccc2cccnc12 (stereo not drawn)
3.34 µM (active)
2) O=C1C=CC(=O)N1c1ccc(OC(F)F)cc1
1.65 µM (active)
3) COc1cccc(/C=N/Nc2ccc([N+](=O)[O-])cn2)c1O
3.85 µM (active)
4) O=C1[C@@H]2C(c3cccnc3)=NO[C@@H]2C(=O)N1c1ccc(Br)cc1
5.67 µM (active)
5) Oc1c(C(Nc2cccc(C(F)(F)F)c2)c2ccncc2)ccc2cccnc12 (stereo not drawn)
6.48 µM (active)
6) Cc1c(Cl)cccc1/N=C/c1ccc([N+](=O)[O-])s1
7.37 µM (active)
7) CCOC(=O)c1c(C)oc2c1c(C(c1cccnc1)N1CCOCC1)c(O)c1ccccc12 (stereo not drawn)
8.43 µM (active)
8) O=C1c2cc(Cl)ccc2-c2c(O)cc(Cl)cc21
2.08 µM (active)

###

target: Histone-lysine N-methyltransferase NSD2 (Homo sapiens); type: biochemical
Sequence (O96028 whole entry): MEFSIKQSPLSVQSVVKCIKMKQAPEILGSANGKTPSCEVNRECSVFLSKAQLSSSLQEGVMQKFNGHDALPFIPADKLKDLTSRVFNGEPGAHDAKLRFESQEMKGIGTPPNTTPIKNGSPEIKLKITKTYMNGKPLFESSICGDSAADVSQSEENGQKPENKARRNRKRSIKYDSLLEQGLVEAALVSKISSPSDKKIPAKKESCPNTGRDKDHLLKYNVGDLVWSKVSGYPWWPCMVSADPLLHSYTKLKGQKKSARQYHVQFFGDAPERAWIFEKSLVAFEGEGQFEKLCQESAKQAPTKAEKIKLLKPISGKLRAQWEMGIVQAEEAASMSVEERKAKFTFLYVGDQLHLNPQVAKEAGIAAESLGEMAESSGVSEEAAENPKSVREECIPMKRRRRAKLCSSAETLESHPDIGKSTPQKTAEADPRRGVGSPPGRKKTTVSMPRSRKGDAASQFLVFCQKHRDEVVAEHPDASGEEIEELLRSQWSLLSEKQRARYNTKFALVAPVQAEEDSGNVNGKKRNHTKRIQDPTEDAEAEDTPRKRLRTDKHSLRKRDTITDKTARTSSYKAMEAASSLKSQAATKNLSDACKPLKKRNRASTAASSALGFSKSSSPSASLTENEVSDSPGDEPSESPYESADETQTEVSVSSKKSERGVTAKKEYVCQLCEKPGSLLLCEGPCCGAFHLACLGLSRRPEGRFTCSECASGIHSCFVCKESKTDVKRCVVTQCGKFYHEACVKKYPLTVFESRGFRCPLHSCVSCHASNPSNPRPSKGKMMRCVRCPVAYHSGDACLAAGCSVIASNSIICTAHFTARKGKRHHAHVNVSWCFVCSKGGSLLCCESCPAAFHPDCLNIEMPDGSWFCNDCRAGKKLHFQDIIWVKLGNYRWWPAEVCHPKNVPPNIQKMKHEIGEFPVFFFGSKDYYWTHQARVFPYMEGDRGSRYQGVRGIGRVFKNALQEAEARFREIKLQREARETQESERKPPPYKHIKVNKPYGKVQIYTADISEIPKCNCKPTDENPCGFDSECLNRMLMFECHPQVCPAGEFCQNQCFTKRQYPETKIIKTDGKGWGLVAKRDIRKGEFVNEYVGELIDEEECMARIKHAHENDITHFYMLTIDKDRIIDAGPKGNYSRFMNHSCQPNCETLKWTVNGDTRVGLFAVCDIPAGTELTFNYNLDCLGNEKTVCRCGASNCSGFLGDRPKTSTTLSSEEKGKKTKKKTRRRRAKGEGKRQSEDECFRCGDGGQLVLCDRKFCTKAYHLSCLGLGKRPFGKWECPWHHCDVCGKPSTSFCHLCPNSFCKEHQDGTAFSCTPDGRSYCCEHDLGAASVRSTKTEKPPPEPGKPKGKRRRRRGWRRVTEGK
Active and inactive are the calls of the source.
Outcomes: active, inactive

1) O=C(O)COc1ccc2c(c1)O/C(=C\c1ccco1)C2=O
inactive
2) CC1=NN(c2ccccc2)C(=O)C1/C=C1\NC(=S)NC1=O (centres undefined)
active
3) COc1ccccc1/C=N/Nc1cc(N(C)C)nc(N(C)C)n1
active
4) CCNCCNc1ccc([N+](=O)[O-])c2cccnc12
active

###

Measured IC50 of individual entries
biological target: Genome polyprotein (dengue virus type 2); assay: Dengue-2 NS5 methyltransferase inhibitors, primary screen, biochemical, confirmation dose response (AID 588689); format: functional
Activity calls are given as the source filed them.
quantity.name: IC50

1. COC/C=C/C1=CC2=CC(=O)C(C)(OC(=O)C3CCCC3)C(=O)C2=CO1 (configuration not stated)
90.2 µM (active)
2. CC1=NN(c2ccccc2)C(=O)/C1=C\c1ccc(Oc2ccc([N+](=O)[O-])cc2[N+](=O)[O-])cc1
19.3 µM (active)
3. COc1cccc(/C=C2/C(=O)NN(c3ccc(F)cc3)C2=O)c1
38.1 µM (active)
4. CC(/C=C1\SC(=S)N(C(C(=O)O)C(C)C)C1=O)=C\c1ccccc1 (configuration not stated)
34.3 µM (active)
5. N#Cc1c(N)sc(=S)c2c1CCCC2
90.8 µM (active)
6. CC1(C)CC(=O)C2=C(C1)c1c(ccc3ccccc13)NC2c1cc([N+](=O)[O-])cc([N+](=O)[O-])c1O (configuration not stated)
25.3 µM (active)
7. NS(=O)(=O)c1ccc(N=Nc2c(O)c(C(=O)O)cc3ccccc23)cc1
> 100 µM (active)

###

target: Cytochrome P450 1A2 (Homo sapiens, UniProt P05177);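 further: PubChem cytochrome P450 panel assay, CYP1A2 panel member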
Sequence (P05177 whole entry): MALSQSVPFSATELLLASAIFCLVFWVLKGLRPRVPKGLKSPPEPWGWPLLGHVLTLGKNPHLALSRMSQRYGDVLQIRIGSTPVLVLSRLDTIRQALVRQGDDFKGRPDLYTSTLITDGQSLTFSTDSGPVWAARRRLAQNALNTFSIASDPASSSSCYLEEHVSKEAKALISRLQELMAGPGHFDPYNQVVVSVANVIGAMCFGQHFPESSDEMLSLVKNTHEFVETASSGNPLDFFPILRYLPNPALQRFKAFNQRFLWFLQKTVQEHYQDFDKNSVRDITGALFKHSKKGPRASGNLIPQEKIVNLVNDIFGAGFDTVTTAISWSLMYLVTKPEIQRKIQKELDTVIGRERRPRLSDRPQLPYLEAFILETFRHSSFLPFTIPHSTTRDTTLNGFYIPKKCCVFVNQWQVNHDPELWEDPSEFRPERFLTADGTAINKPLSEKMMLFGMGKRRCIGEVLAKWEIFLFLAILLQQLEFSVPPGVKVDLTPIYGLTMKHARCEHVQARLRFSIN
Measured AC50 of individual entries
quantity.name: AC50

1. Cc1ccccc1-c1nc(C[S+]([O-])CC(=O)N2CCC3(CC2)OCCO3)c(C)o1 (stereo unspecified)
25.1 µM (inconclusive)
2. Cn1cccc1C(=O)N1CCC2(CCCN(c3ccccn3)C2)CC1
20 µM (inconclusive)
3. C[C@@H](CN1CCC(Cc2ccccc2)CC1)[C@H](O)c1ccc(O)cc1
12.6 µM (inconclusive)
4. Nc1nc(S)nc(O)c1/N=N\c1c(Br)cc(S(N)(=O)=O)cc1Br
3.16 µM (inconclusive)
5. O=C(O)/C=C\c1ccc(Cn2ccnc2)cc1
12.6 µM (inconclusive)
6. COc1ccc(-n2c(=O)c(C)nc3cnc(Nc4ccccc4)nc32)cc1
5.01 µM (inconclusive)
7. CCOc1ccc(-n2c(C)nc3cc(C(=O)NCc4ccco4)ccc32)cc1
25.1 µM (inconclusive)
8. Nc1nc(NCCc2ccc(O)cc2)nc2nc(-c3ccco3)nn12
31.6 µM (inconclusive)
9. CN(Cc1cc(Br)cc(Br)c1O)Cc1c(O)ccc2ccccc12
1.26 µM (inconclusive)
10. Cc1nnc(-c2cnn(-c3ccccc3)c2N)n1Cc1ccncc1
11.2 µM (inconclusive)
11. CCCCC1=NN2C(=N)CC(=O)N=C2S1
25.1 µM (inconclusive)

###

target: Cytochrome P450 2D6 (Homo sapiens);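 further: CYP2D6 member of a cytochrome P450 panel assay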
Sequence (P10635 whole entry): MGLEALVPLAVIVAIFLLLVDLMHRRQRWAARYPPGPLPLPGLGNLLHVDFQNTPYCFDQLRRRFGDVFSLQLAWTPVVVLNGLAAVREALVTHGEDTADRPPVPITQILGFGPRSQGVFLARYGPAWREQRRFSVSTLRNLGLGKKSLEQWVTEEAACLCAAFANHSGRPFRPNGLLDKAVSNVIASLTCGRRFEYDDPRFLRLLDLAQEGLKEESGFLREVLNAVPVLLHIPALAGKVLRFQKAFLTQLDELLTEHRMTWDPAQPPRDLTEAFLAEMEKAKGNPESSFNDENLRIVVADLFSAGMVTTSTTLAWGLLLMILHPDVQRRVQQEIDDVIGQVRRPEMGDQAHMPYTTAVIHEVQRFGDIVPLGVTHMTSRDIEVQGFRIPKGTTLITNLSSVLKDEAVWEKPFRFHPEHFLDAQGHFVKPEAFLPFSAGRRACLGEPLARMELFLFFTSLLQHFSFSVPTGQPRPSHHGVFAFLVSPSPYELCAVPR
quantity.name: AC50

1. CCOc1ccc(-n2c(C)nc3cc(C(=O)NCc4ccco4)ccc32)cc1
11.2 µM (inconclusive)
2. CN(Cc1ccco1)c1ncncc1-c1ccoc1
39.8 µM (inconclusive)
3. O=[N+]([O-])/C=C\c1cc2ccccc2[nH]1
5.01 µM (inconclusive)
4. Cn1cccc1C(=O)N1CCC2(CCCN(c3ccccn3)C2)CC1
25.1 µM (inconclusive)

###

target: Heat shock factor protein 1 (Mus musculus, UniProt P38532); experiment: inhibition of MG132-induced HSE-luciferase signal, confirmation, cell-based, NIH3T3, luminescence, dose retest (AID 2382); assay type: functional;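 further: NIH3T3 fibroblasts with HSF1-driven luciferase reporter stressed by proteasome inhibitor MG132; luminescence from HSF1-driven luciferase expression after 8 hours of MG132 stress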
Sequence (P38532 whole entry): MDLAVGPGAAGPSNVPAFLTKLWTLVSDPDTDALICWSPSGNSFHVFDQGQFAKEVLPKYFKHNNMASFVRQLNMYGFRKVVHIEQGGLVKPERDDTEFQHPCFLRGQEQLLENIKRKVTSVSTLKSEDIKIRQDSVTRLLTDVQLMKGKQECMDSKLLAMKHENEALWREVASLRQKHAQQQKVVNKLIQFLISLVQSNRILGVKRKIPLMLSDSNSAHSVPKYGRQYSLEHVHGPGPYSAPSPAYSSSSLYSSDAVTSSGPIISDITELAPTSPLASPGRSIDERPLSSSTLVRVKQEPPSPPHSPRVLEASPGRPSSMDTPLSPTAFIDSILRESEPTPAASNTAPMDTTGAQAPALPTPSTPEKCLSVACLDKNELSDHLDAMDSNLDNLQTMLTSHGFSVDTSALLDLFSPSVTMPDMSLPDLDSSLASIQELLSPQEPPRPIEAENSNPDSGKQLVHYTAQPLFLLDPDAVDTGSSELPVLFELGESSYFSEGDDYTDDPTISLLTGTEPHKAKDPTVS
Activity calls are given as the source filed them.
Measured EC50 of individual entries
quantity.name: EC50

1. CC(=O)NC(=S)Nc1cccc(S(=O)(=O)NC2=NCCC2)c1
> 195 µM (not active)
2. CCCCN(C)CCNC(=O)c1cc2c(-c3ccccc3F)nn(C)c2s1
> 195 µM (not active)
3. COC(=O)N/N=C/c1ccc(/C=N/NC(=O)OC)cc1
> 195 µM (not active)
4. O=C(CSc1nc2ccccc2n1S(=O)(=O)c1ccccc1)N1CCCCC1
> 195 µM (not active)
5. COc1ccc(N(CC(=O)NC2CCCCCCC2)S(=O)(=O)c2c(C)nn(C)c2C)cc1
> 195 µM (not active)
6. O=C(N1CCCCC1)N1CCN(S(=O)(=O)c2ccccc2)CC1
32.8 µM (active)
7. CCn1c(S)nnc1-c1ccc2[nH]c(C)c(C)c2c1
> 195 µM (not active)
8. Cc1cc(C)n(-c2ccc(NC(=O)C3CCCCN3C(=O)c3ccoc3C)cc2)n1 (stereo not given)
> 195 µM (not active)
9. COc1ccc(OC)c2sc(N(CCCN(C)C)C(=O)c3ccc(S(=O)(=O)N4CCc5ccccc5C4)cc3)nc12
5.01 µM (active)
10. O=C(C1=C[C@H](c2ccc(C(F)(F)F)cc2)C[C@H](OCCCCO)O1)N1CCN(Cc2ccc3c(c2)OCO3)CC1
> 195 µM (not active)

###

Measured EC50 of individual entries
assay: Luminescence Cell-Based Dose Confirmation HTS to Identify Inhibitors of Platelet Dense Granule Release. [Related pubchem assays: 1663 (Primary HTS), 1678 (Summary of Project)]; format: functional
Active and inactive are the calls of the source.
quantity.name: EC50

1) Clc1ccccc1Nc1nnc(-c2ccncc2)s1
2.56 µM (active)
2) O=C(C=C=Nc1ccccc1)C(=O)N=C=Cc1ccccc1
47 µM (active)
3) CC(=O)Nc1cccc(N2C(=O)CC(Cc3ccccc3)C2=O)c1 (stereo not given)
> 112 µM (not active)
4) COC(=O)c1cccc(NC(=O)Nc2ccc(Cl)cc2Cl)c1
> 112 µM (not active)
5) Cc1ccc(NS(=O)(=O)c2cccc(C(=O)N3CCCCCC3)c2)cc1
> 112 µM (not active)

###

biological target: Corticotropin-releasing factor receptor 2/Corticotropin-releasing factor-binding protein (Homo sapiens, UniProt P24387+Q13324); experiment: Dose Response confirmation of uHTS hits for small molecule antagonists of the CRF-binding protein and CRF-R2 receptor complex.; assay type: functional; details: read-out: IC50_Mean
Sequence (Q13324 whole entry): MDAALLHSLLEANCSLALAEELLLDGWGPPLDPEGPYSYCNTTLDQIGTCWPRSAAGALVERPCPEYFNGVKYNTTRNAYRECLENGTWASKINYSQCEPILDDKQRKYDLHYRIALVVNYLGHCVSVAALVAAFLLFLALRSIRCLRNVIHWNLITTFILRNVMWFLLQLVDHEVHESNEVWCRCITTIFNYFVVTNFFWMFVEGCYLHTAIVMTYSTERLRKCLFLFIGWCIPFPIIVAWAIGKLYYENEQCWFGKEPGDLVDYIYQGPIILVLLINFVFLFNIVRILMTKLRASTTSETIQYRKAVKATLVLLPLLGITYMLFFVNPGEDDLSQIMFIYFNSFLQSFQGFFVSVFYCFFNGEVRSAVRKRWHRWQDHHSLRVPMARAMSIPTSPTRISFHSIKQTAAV
Sequence (P24387 whole entry): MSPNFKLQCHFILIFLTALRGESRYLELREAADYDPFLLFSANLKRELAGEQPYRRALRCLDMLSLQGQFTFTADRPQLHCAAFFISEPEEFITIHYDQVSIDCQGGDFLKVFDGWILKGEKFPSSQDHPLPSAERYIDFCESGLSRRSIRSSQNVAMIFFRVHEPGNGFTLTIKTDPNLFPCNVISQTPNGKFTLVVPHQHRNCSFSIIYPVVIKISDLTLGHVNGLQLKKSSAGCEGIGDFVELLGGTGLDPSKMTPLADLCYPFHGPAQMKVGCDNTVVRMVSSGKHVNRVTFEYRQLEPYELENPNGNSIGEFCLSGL
Activity calls are given as the source filed them.
Outcomes: TRUE for active, FALSE for inactive

1) COC(=O)CC(NC(=O)c1ccc(C)cc1)c1ccc2c(c1)OCO2 (stereo not given)
FALSE
2) COC(=O)c1ccc(CSc2nc3ccccc3c(=O)n2-c2cccc(OC)c2)o1
TRUE
3) Oc1ccnc2c(Cl)cccc12
FALSE
4) COc1ccc(OC)c(S(=O)(=O)N2c3ccccc3CC2C)c1 (stereo not given)
TRUE
5) C=CCN1C(=O)NC(=O)/C(=C(/CC)Nc2ccccc2NC(=O)CC)C1=O
FALSE

###

biological target: DNA repair and recombination protein RAD54-like (Homo sapiens); assay: inhibitors of human RAD54 branch migration, confirmation, biochemical, fluorescence, cherry-picked samples, dose series (AID 651657); assay type: functional
Sequence (Q92698 whole entry): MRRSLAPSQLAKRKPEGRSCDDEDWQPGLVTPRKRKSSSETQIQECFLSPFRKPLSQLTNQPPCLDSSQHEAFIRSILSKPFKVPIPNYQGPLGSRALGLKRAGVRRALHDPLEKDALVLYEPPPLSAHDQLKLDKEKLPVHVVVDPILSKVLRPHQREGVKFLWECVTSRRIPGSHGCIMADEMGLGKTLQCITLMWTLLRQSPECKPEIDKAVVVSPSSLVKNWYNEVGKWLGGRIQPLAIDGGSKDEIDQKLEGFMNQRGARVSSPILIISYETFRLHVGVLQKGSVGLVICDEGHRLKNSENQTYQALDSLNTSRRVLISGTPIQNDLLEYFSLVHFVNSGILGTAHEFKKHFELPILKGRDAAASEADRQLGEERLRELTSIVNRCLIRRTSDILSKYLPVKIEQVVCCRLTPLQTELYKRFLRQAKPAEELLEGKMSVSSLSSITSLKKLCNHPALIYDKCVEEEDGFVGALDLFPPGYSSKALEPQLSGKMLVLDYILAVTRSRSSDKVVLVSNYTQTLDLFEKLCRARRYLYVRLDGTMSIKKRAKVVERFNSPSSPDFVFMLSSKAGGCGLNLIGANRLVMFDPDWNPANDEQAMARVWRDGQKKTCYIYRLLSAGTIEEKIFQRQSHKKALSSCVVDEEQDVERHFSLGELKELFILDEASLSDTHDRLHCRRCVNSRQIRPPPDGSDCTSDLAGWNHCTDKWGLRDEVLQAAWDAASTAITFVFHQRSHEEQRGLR
Active and inactive are the calls of the source.
quantity.name: AC50

1. CCOC(=O)c1cnc2c(C)cc(Cl)cc2c1NCCCN1CCOCC1
17.4 µM (active)
2. CN1CCN(c2ccc(Nc3ccnc4cc(Cl)ccc34)cc2)CC1
6.94 µM (active)
3. COc1cccc(-c2cc(NC=O)c3ncc(-c4cccc(C(=O)NCCN(C)C)c4)n3c2)c1
22.3 µM (active)
4. Cc1cccn2c(=O)c3cc(C(=O)NC4CCCC4)c(=N)n(CCCN4CCOCC4)c3nc12
21.5 µM (active)
5. CCNCCNc1ccc([N+](=O)[O-])c2cccnc12
29.7 µM (active)
6. O=C(NC1CN2CCC1CC2)c1cc(Cl)c([N+](=O)[O-])c2nc[nH]c12 (stereo unspecified)
41.6 µM (active)
